This collection of values is drawn from patent US20250382355A1.

Test system: Biotinylated CoV2 Spike ECD PreS-AVI protein (SARS-CoV-2, UniProt P0DTC2 14-1208)
Protocol text: Octet binning; competitor Std-D
Reported endpoint: binning response
Keep the answer to the number alone.

7A9 VHH-Fc (Fc fusion) QVQLVESGGGLVQAGGSLRLSCSASGGTASRSAMGWFRQAPGKEREFVAGISRRNSGSTYVADSYEDSVKGRFTISRDNAKNTIYLQMNSLKPEDTAVYYCAAEPTLGWYVPRRSVEYEYWGQGTQVTVSS | 0.46

Please examine the following record next.
Endpoint output: binning response of 1A11 VHH-Fc (Fc fusion) QVQLVESGGGLVQAGGSLRLSCEVSGSIYSINSMGWYRQAPGKQRELVAGIVSDGRINYADSVKGRFTISRAKNTVYLQMNSLKPEDTAVYYCAADRAFVYAGDYDYLGQGTQVTVSS . Value?
0.06
